Data origin: ChEMBL document CHEMBL3600345

Target sequence: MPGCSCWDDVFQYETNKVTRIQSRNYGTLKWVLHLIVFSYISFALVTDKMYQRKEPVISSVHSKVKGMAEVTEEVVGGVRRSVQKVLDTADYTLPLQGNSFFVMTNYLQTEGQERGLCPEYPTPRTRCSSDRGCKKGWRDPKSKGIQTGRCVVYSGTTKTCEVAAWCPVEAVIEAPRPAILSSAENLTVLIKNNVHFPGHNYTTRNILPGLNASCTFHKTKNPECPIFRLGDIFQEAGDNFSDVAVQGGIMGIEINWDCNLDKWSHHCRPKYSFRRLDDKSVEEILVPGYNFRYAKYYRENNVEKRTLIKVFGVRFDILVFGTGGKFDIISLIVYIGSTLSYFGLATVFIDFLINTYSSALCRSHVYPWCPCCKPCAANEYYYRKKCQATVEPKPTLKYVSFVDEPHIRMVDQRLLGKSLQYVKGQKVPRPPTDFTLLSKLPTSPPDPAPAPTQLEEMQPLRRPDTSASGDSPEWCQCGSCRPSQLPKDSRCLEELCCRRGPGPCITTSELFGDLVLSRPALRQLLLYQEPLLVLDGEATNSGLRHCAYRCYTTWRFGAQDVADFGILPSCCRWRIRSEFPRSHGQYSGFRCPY

COMPOUND | UNITS OF MEASURE | IC50
CN([C@@H](Cc1ccc(OS(=O)(=O)c2cccc3cnccc23)cc1)C(=O)N1CCN(c2ccccc2)CC1)S(=O)(=O)c1cccc2cnccc12 | nM | 130

====

Target: P2X purinoceptor 7 (Homo sapiens)
Sequence (Q99572 whole entry): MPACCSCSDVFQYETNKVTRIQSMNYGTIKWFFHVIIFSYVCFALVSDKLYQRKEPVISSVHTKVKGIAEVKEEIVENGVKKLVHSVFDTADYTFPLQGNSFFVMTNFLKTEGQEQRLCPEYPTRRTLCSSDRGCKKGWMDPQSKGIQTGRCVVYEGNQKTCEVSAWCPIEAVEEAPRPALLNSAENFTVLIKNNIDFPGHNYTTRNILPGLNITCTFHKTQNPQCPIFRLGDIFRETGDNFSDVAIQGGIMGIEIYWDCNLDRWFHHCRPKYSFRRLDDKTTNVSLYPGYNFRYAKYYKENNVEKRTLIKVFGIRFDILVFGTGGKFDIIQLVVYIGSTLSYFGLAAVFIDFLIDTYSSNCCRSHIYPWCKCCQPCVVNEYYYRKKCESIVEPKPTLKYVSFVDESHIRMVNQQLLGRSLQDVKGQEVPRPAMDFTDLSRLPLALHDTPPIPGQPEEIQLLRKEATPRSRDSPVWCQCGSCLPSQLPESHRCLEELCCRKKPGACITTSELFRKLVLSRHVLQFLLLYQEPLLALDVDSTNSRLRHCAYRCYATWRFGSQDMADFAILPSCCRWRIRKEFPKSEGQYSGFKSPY
pIC50: −log10 of the molar value.

COMPOUND | pIC50
C[S+]([O-])c1ccc(-c2nc(-c3ccncc3)c(-c3ccc(F)cc3)[nH]2)cc1 (stereo unspecified) | 5.30

====

Assay: Inhibition of rhesus macaque P2X7 receptor
Parameters: species or system Macaca mulatta
Reported values of IC50 for individual entries

COMPOUND | IC50 [nM]
O=C1CSC(=O)N1C(CCc1ccncc1)COc1ccc(-c2cccc([N+](=O)[O-])c2)cc1 (configuration not stated) | 23
CN([C@@H](Cc1ccc(OS(=O)(=O)c2cccc3cnccc23)cc1)C(=O)N1CCN(c2ccccc2)CC1)S(=O)(=O)c1cccc2cnccc12 | 86
